# System: HL-60
# PROTOCOL: area under dose-response curve (viability, 1 nM-10 uM) (fraction (0-1)); higher = more sensitive
# CONDITION INFO: 72 h; co-treatment: AZD3965 100 nM
VALUE KIND: area under dose-response curve

Quick note, area under dose-response curve for O=C(NCCN1CCC(n2c(O)nc3ccccc32)CC1)c1cc2cc(F)ccc2[nH]1 [FIPI] landed at < 0.0301

Quick note, area under dose-response curve for N#Cc1ccnc(N2C(=O)CC[C@H]2C(=O)N(c2cncc(F)c2)[C@H](C(=O)NC2CC(F)(F)C2)c2ccccc2Cl)c1 [AG-120] landed at < 0.0301

Quick note, area under dose-response curve for CN(CCOc1ccc(Cc2sc(O)nc2O)cc1)c1ccccn1 [Rosiglitazone] landed at < 0.0301
